All values here come from patent US11117883B2.

target: BAF3 FL KIT EX11DEL/T6701 (Homo sapiens, UniProt P10721, T670I, cells depend on it, form not given); construct: "BAF3 FL KIT EX11DEL/ T6701"; test: c-Kit assay: Ba/F3 KIT mutant viability (Cell Titer-Glo, 72 hours); assay type: cell-based; conditions: EX11DEL/T6701, viability after 72 hours
Sequence (P10721 with tags, fused parts or gaps DEL557-558/T670I, form open): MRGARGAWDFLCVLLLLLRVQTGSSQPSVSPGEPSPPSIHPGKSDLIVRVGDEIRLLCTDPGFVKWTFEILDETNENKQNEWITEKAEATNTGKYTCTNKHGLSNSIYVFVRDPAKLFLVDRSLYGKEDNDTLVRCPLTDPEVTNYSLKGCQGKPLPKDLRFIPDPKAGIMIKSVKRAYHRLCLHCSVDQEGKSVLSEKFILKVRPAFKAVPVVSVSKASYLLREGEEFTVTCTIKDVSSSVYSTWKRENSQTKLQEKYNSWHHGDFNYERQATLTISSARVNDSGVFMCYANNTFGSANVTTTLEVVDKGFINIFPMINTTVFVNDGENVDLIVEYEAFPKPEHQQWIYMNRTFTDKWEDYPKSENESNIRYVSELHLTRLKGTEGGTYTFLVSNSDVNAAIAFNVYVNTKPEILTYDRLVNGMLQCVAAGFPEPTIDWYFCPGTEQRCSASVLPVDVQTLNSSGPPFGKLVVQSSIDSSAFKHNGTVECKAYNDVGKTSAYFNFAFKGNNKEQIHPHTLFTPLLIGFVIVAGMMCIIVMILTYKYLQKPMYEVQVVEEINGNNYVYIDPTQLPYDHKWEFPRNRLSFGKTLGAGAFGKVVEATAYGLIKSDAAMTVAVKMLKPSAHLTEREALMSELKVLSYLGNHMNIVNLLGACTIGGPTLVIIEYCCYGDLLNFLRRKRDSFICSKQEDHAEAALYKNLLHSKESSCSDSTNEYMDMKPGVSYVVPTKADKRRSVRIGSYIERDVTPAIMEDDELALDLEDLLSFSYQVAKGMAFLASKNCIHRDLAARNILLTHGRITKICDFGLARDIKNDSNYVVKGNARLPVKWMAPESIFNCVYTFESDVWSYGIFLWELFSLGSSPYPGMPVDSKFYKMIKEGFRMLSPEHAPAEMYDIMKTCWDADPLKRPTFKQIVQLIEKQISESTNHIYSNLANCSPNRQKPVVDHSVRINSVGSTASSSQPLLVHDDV
Would you kindly list GI50 for each of these compounds?

# annotated cases, reported GI50 shown
>>> result("Cc1ccc(C(=O)Nc2cc(C(F)(F)F)ccn2)cc1C#Cc1ccc2c(c1)ncn2-c1cccc(N2CCN(C)CC2)c1")
"100 to 10000 nM"
>>> result("Cc1ccc(C(=O)Nc2cc(C(F)(F)F)ccn2)cc1C#Cc1ccc2c(c1)ncn2Cc1cccnc1")
"100 to 10000 nM"
>>> result("CNC(=O)Cn1cnc2cc(C#Cc3cc(C(=O)Nc4cc(C(F)(F)F)ccn4)ccc3C)ccc21")
"100 to 10000 nM"
>>> result("Cc1ccc(NC(=O)c2cc(C(F)(F)F)ccn2)cc1C#Cc1ccc2c(c1)ncn2-c1cnn(C)c1")
"10 to 50 nM"
>>> result("Cc1ccc(C(=O)Nc2ccc(CN3CCCC3)c(C(F)(F)F)c2)cc1C#Cc1ccc2c(c1)ncn2C")
"50 to 100 nM"
>>> result("Cc1ccc(C(=O)Nc2cc(C(F)(F)F)ccn2)cc1C#Cc1ccc2c(c1)ncn2-c1ccc(N2CCN(C)CC2)cc1")
"100 to 10000 nM"

Please examine the following record next.
Query string: Reported GI50, compound Cc1ccc(C(=O)Nc2cc(C(F)(F)F)ccn2)cc1C#Cc1ccc2c(c1)ncn2-c1cnn(C2CCOCC2)c1 : ____
Result string: < 10 nM

---

biological target: BAF3 FL KIT EX11DEL (Homo sapiens, UniProt P10721, cells depend on it, form not given); construct: "BAF3 FL KIT EX11DEL"; test: c-Kit assay: Ba/F3 KIT mutant viability (Cell Titer-Glo, 72 hours); format: cell-based; details: viability after 72 hours
Sequence (P10721 with tags, fused parts or gaps DEL557-558): as the sequence (P10721 with tags, fused parts or gaps DEL557-558/T670I, form open) above, with I668T counted along it
I'd appreciate it if you could supply GI50 values for the items below.

Consider the following illustrative entries.
>>> result("Cc1ccc(C(=O)Nc2cc(C(F)(F)F)ccn2)cc1C#Cc1ccc2ncn(C)c2c1 [Compound I-11]")
"100 to 10000 nM"
>>> result("CCN(CC)CCn1cc(-n2cnc3cc(C#Cc4cc(NC(=O)c5cc(C(F)(F)F)ccn5)ccc4C)ccc32)cn1 [Compound I-42]")
"10 to 50 nM"
>>> result("Cc1ccc(C(=O)Nc2cc(C(F)(F)F)ccn2)cc1C#Cc1ccc2nc(N)[nH]c2c1 [Compound I-10]")
"10 to 50 nM"
>>> result("COCCn1cnc2cc(C#Cc3cc(C(=O)Nc4cc(C(F)(F)F)ccn4)ccc3C)ccc21 [Compound I-4]")
"< 10 nM"
>>> result("COCCn1cc(-n2cnc3cc(C#Cc4cc(C(=O)Nc5cc(C(F)(F)F)ccn5)ccc4C)ccc32)cn1 [Compound I-32]")
"< 10 nM"

For every record below, what is its GI50?
1. Cc1ccc(C(=O)Nc2cc(C(F)(F)F)ccn2)cc1C#Cc1ccc2c(c1)ncn2-c1cnn(C2CCN(C)CC2)c1 [Compound I-27]
2. Cc1ccc(NC(=O)c2ccc(CN3CCN(C)CC3)c(C(F)(F)F)c2)cc1C#Cc1ccc2c(c1)ncn2-c1cnn(C)c1 [Compound I-46]
3. Cc1ccc(NC(=O)c2ccc(CN3CCCC3)c(C(F)(F)F)c2)cc1C#Cc1ccc2c(c1)ncn2-c1cnn(C)c1 [Compound I-47]
4. Cc1ccc(NC(=O)c2cc(C(F)(F)F)ccn2)cc1C#Cc1ccc2c(c1)ncn2-c1cn(C)nn1 [Compound I-36]
5. Cc1ccc(C(=O)Nc2cc(C(F)(F)F)ccn2)cc1C#Cc1ccc2c(c1)ncn2-c1cnn(C)c1 [Compound I-17]
6. COCCn1cc(-n2cnc3cc(C#Cc4cc(NC(=O)c5cc(C(F)(F)F)ccn5)ccc4C)ccc32)cn1 [Compound I-38]
7. Cn1cc(-n2cnc3cc(C#Cc4cccc(C(=O)Nc5cc(C(F)(F)F)ccn5)c4)ccc32)cn1 [Compound I-50]

Result string:
1: < 10 nM; 2: 10 to 50 nM; 3: 10 to 50 nM; 4: < 10 nM; 5: 10 to 50 nM; 6: < 10 nM; 7: < 10 nM

# return GI50 for each item in the list
1. Cc1ccc(C(=O)Nc2ccc(C#N)c(C(F)(F)F)c2)cc1C#Cc1ccc2c(c1)ncn2-c1ccn(C)n1 [Compound I-37]
2. Cc1ccc(C(=O)Nc2cc(C(F)(F)F)ccn2)cc1C#Cc1ccc2c(c1)ncn2-c1cccc(N2CCN(C)CC2)c1 [Compound I-14]

Result string:
1: < 10 nM; 2: 50 to 100 nM

---

molecular target: BAF3 FL KIT EX11DEL/D816H (Homo sapiens, UniProt P10721, D816H, cells depend on it, form not given); construct: "BAF3 FL KIT EX11DEL/ D816H"; test: c-Kit assay: Ba/F3 KIT mutant viability (Cell Titer-Glo, 72 hours); assay type: cell-based; settings: viability after 72 hours
Sequence (P10721 with tags, fused parts or gaps DEL557-558/D816H, form open): as the sequence (P10721 with tags, fused parts or gaps DEL557-558/T670I, form open) above, with I668T, D814H counted along it
Kindly state GI50 for each of the entries shown.

// solved cases for GI50 follow
>>> result("Cc1ccc(C(=O)Nc2ccc(N3CCN(C)CC3)c(C(F)(F)F)c2)cc1C#Cc1ccc2c(c1)ncn2C")
"100 to 10000 nM"
>>> result("Cn1cc(-n2cnc3cc(C#Cc4cccc(NC(=O)c5cc(C(F)(F)F)ccn5)c4)ccc32)cn1")
"100 to 10000 nM"
>>> result("Cc1ccc(NC(=O)c2ccc(CN3CCN(C)CC3)c(C(F)(F)F)c2)cc1C#Cc1ccc2c(c1)ncn2-c1cnn(C)c1")
"100 to 10000 nM"
>>> result("Cc1ccc(NC(=O)c2cc(C(F)(F)F)ccn2)cc1C#Cc1ccc2c(c1)ncn2-c1cnn(C2CCN(C)CC2)c1")
"100 to 10000 nM"
>>> result("Cc1ccc(C(=O)Nc2cc(C(F)(F)F)ccn2)cc1C#Cc1ccc2c(c1)ncn2C")
"50 to 100 nM"

Give one value of GI50 per listed compound.
1. Cc1ccc(NC(=O)c2cc(C(F)(F)F)ccn2)cc1C#Cc1ccc2c(c1)ncn2-c1cn[nH]c1
2. Cc1ccc(NC(=O)c2cc(C(F)(F)F)ccn2)cc1C#Cc1ccc2c(c1)ncn2-c1cnn(CCN(C)C)c1

Result string:
1: 50 to 100 nM; 2: 100 to 10000 nM

---

target: BAF3 FL KIT EX11DEL (Homo sapiens, UniProt P10721, cells depend on it, form not given); construct: "BAF3 FL KIT EX11DEL"; assay: c-Kit assay: Ba/F3 KIT mutant viability (Cell Titer-Glo, 72 hours); type: cell-based; settings: viability after 72 hours
measurement kind: GI50

Examples with their reported GI50 follow.
>>> result("Cc1ccc(NC(=O)c2cc(C(F)(F)F)ccn2)cc1C#Cc1ccc2c(c1)ncn2-c1cnn(C)c1 [Compound I-44]")
"< 10 nM"
>>> result("Cc1ccc(C(=O)Nc2ccc(CN3CCCC3)c(C(F)(F)F)c2)cc1C#Cc1ccc2c(c1)ncn2-c1cnn(C)c1 [Compound I-29]")
"10 to 50 nM"
>>> result("Cc1ccc(C(=O)Nc2ccc(N3CCN(C)CC3)c(C(F)(F)F)c2)cc1C#Cc1ccc2c(c1)ncn2C [Compound I-22]")
"100 to 10000 nM"
>>> result("Cc1ccc(C(=O)Nc2cccc(C3CC3)c2)cc1C#Cc1ccc2c(c1)ncn2-c1cnn(C)c1 [Compound I-28]")
"10 to 50 nM"
>>> result("Cc1ccc(C(=O)Nc2cc(C(F)(F)F)ccn2)cc1C#Cc1ccc2c(c1)ncn2CCN(C)C [Compound I-3]")
"50 to 100 nM"
>>> result("Cc1ccc(C(=O)Nc2cc(C(F)(F)F)ccn2)cc1C#Cc1ccc2c(c1)ncn2Cc1cccnc1 [Compound I-12]")
"10 to 50 nM"

// moving on: another record for GI50
Query string: Can you look up the measured GI50 of Cc1ccc(NC(=O)c2cc(C(F)(F)F)ccn2)cc1C#Cc1ccc2c(c1)ncn2-c1cnn(CCO)c1 [Compound I-39] for me?
Result string: < 10 nM

---

Would you kindly list GI50 for each of these compounds?
target: BAF3 FL KIT EX11DEL/T6701 (Homo sapiens, UniProt P10721, T670I, cells depend on it, form not given); construct: "BAF3 FL KIT EX11DEL/ T6701"; experiment: c-Kit assay: Ba/F3 KIT mutant viability (Cell Titer-Glo, 72 hours); assay type: cell-based; conditions: EX11DEL/T6701, viability after 72 hours

Return reported GI50 values for all items listed beneath this line.
1. CCn1cnc2cc(C#Cc3cc(C(=O)Nc4cc(C(F)(F)F)ccn4)ccc3C)ccc21 [Compound I-7]
2. Cc1ccc(NC(=O)c2cc(C(F)(F)F)ccn2)cc1C#Cc1ccc2c(c1)ncn2-c1cnn(CCN(C)C)c1 [Compound I-41]
3. Cc1ccc(C(=O)Nc2cc(C(F)(F)F)ccn2)cc1C#Cc1ccc2c(c1)ncn2-c1cnn(C2CCN(C)CC2)c1 [Compound I-27]
4. Cc1ccc(C(=O)Nc2cc(C(F)(F)F)ccn2)cc1C#Cc1ccc2c(c1)ncn2-c1cn(C2CCN(C)CC2)cn1 [Compound I-34]
5. Cc1ccc(C(=O)Nc2cc(C(F)(F)F)ccn2)cc1C#Cc1ccc2c(c1)ncn2-c1cn(C)cn1 [Compound I-23]
6. Cc1ccc(NC(=O)c2cc(C(F)(F)F)ccn2)cc1C#Cc1ccc2c(c1)ncn2-c1cn(C)nn1 [Compound I-36]
7. Cc1ccc(C(=O)Nc2cc(C(F)(F)F)ccn2)cc1C#Cc1ccc2c(c1)ncn2-c1cnn(CCO)c1 [Compound I-31]

Result string:
1. 50 to 100 nM
2. 10 to 50 nM
3. 10 to 50 nM
4. 10 to 50 nM
5. < 10 nM
6. 10 to 50 nM
7. < 10 nM

State the recorded GI50 for every item in the following list.
1. Cc1ccc(C(=O)Nc2cc(C(F)(F)F)ccn2)cc1C#Cc1ccc2c(c1)ncn2-c1cnn(C2CCNCC2)c1 [Compound I-26]
2. Cc1ccc(C(=O)Nc2cc(C(F)(F)F)ccn2)cc1C#Cc1ccc2c(c1)ncn2CCN(C)C [Compound I-3]
3. COCCn1cc(-n2cnc3cc(C#Cc4cc(C(=O)Nc5cc(C(F)(F)F)ccn5)ccc4C)ccc32)cn1 [Compound I-32]
4. Cc1ccc(C(=O)Nc2cc(C(F)(F)F)ccn2)cc1C#Cc1ccc2c(c1)ncn2C1CC1 [Compound I-13]

Result string:
10 to 50 nM
100 to 10000 nM
< 10 nM
100 to 10000 nM

Answer for every listed entry: what is its GI50? The entries follow.
1. COCCn1cc(-n2cnc3cc(C#Cc4cc(NC(=O)c5cc(C(F)(F)F)ccn5)ccc4C)ccc32)cn1 [Compound I-38]
2. COCCn1cnc2cc(C#Cc3cc(C(=O)Nc4cc(C(F)(F)F)ccn4)ccc3C)ccc21 [Compound I-4]
3. Cc1ccc(C(=O)Nc2cc(C(F)(F)F)ccn2)cc1C#Cc1ccc2c(c1)ncn2C [Compound I-8]
4. Cc1ccc(NC(=O)c2ccc(CN3CCOCC3)c(C(F)(F)F)c2)cc1C#Cc1ccc2c(c1)ncn2-c1cnn(C)c1 [Compound I-48]

Result string:
1: 10 to 50 nM; 2: 50 to 100 nM; 3: 10 to 50 nM; 4: 10 to 50 nM

Please state GI50 for every compound in the list that follows.
1. Cc1ccc(C(=O)Nc2cccc(C3CC3)c2)cc1C#Cc1ccc2c(c1)ncn2-c1cnn(C)c1 [Compound I-28]
2. Cc1ccc(NC(=O)c2ccc(CN3CCN(C)CC3)c(C(F)(F)F)c2)cc1C#Cc1ccc2c(c1)ncn2-c1cnn(C)c1 [Compound I-46]

Result string:
["10 to 50 nM", "50 to 100 nM"]

Query string: Entry Cn1cc(-n2cnc3cc(C#Cc4cccc(C(=O)Nc5cc(C(F)(F)F)ccn5)c4)ccc32)cn1 [Compound I-50] : reported GI50 = ?
Result string: < 10 nM
